System: OVCAR-8
Assay: NCI tumour cell line growth inhibition, 48 h
The source made the active and inactive calls. Cut-off read from the data, not from the text of the source: active = GI50 up to about 1.1 µM and inactive = higher.
The molecules listed here are annotated with their GI50.
metric: GI50

molecule	metric	result-value
C/C(=N\Nc1nc2ccccc2s1)c1cc2ccccc2cn1	GI50	2.84 µM (inactive)
C=C1C(=O)OC2C1C(OC(=O)/C(C)=C/C)CC(O)(CCl)C1C(O)C=C(C)C21O (configuration not stated)	GI50	10.9 µM (inactive)
CC(CN1CCN(CC(C)Nc2ccnc3cc(Cl)ccc23)CC1)Nc1ccnc2cc(Cl)ccc12 (configuration not stated)	GI50	18.9 µM (inactive)
C=C(C)C1CCC(C(=O)O)CC1 (configuration not stated)	GI50	> 100 µM (inactive)
Sc1ncnc2c1ncn2Cc1ccco1	GI50	> 100 µM (inactive)
CCOC(=O)CNC(=O)C(CSCc1ccc(Br)cc1)NC(=O)CCC(N)C(=O)OCC (configuration not stated)	GI50	> 50 µM (inactive)
NC(=O)NC(=O)C1CCCCC1C(=O)O (configuration not stated)	GI50	> 100 µM (inactive)
O=C(NCCCl)O/N=C/c1cccnc1	GI50	> 100 µM (inactive)
OC1C2CN3CCN(C2)CC1(c1ccccc1)C3 (configuration not stated)	GI50	> 100 µM (inactive)
CCCCCCCCCCCCCCCCCc1nc(Cl)nc(Cl)c1Cl	GI50	> 100 µM (inactive)
O=S(=O)(Oc1ccc2ccccc2c1-c1c(OS(=O)(=O)C(F)(F)F)ccc2ccccc12)C(F)(F)F	GI50	> 100 µM (inactive)
COc1cc(C2C3=C(N=C4SC(C(C)=O)=C(C)N42)c2ccccc2CC3)cc(OC)c1OC (configuration not stated)	GI50	> 100 µM (inactive)
COc1ccc(C2=C(N)c3c(Cl)cccc3C2=O)cc1	GI50	53.1 µM (inactive)
COC(=O)C1=Cc2c(OC)cc(OC)c(OC)c2[C@H](c2cc(OC)c(OC)cc2OC)C1C(=O)OC (some centres not stated)	GI50	> 100 µM (inactive)
COc1cc(C(=O)C2CC3(CCC2(O)c2cc(OC)c(OC)c(OC)c2)CC(=O)Nc2ccccc2C3=O)cc(OC)c1OC (configuration not stated)	GI50	> 100 µM (inactive)
O=[N+]([O-])C1C2C=CC(C2)[C@H]1c1ccc(Cl)cc1Cl (some centres not stated)	GI50	57.1 µM (inactive)
COc1ccc(N(CC(=O)O)S(=O)(=O)c2ccccc2)cc1	GI50	> 100 µM (inactive)
CCN1c2ccccc2-c2c3c1cc(C)cc3c1ccccc1[n+]2CC	GI50	0.427 µM (active)
CCOC(=O)CSC(=O)NCCCl	GI50	> 100 µM (inactive)
N#C/C(=C1/c2cc([N+](=O)[O-])ccc2-c2c1cc([N+](=O)[O-])cc2[N+](=O)[O-])N1CCCCC1	GI50	> 100 µM (inactive)
C[n+]1c2ccccc2c(NCC(=O)O)c2ccccc21	GI50	> 100 µM (inactive)
Oc1nc(-c2ccc3ccccc3c2)nc2ccccc12	GI50	12.7 µM (inactive)

----------
System: DU-145
Assay: NCI tumour cell line growth inhibition, 48 h
The source made the active and inactive calls. No stated cut-off is given here; in the data, active = GI50 up to about 1.1 µM and inactive = higher.
Outcomes: Yes (active), No (inactive)

compound	experimental-system	cat
CCc1nc2c(c(N(C)C)c1C(=O)OC)CCc1ccccc1-2	DU-145	No
COC(=O)CCC1(CCC(=O)OC)CCCCCCC(CCC(=O)OC)(CCC(=O)OC)C(=O)C1=O	DU-145	No
CCN(CC)c1ccc(C(=C2C=CC(=[N+](CC)CC)C=C2)c2ccc(N(CC)CC)cc2)cc1	DU-145	Yes
CCOC(=O)c1csc(NC(=O)C(C)N2CCCCC2)n1 (stereo not given)	DU-145	No
CC(NO)/C(=N/O)c1ccco1 (stereo not given)	DU-145	No
CCCCCCCCCCCCOCCCOP(=O)([O-])OCC[N+](C)(C)C	DU-145	No
Oc1cn(-c2ccc(Cl)cc2)nc1-c1nnc(-c2ccccc2)o1	DU-145	No
CC(=O)[C@H]1CC[C@@H]2[C@]1(C)CC=C1[C@]23C=C[C@]2(C[C@@H](O)CC[C@]12C)C(C(=O)O)C3C(=O)O (stereo not given in full)	DU-145	No
C=C1c2nc3ccccc3n2C=C(c2ccccc2)N1c1ccccc1	DU-145	No
Clc1ccc(OCc2nnc3sc(-c4ccc(-c5ccc(Cl)cc5Cl)o4)nn23)c(Cl)c1	DU-145	No
